- Tested on: Escherichia coli
- test-details: Agar disc diffusion, strain A
- Type: cell-based
- Design: concentration or dose not given beside the values
// returns label 0 unless Inhibition% is strictly below 70%, in which case label 1

[Ni+2].[O-]c1ccccc1N=Cc1ccc(N2CCOCC2)cc1.[O-]c1ccccc1N=Cc1ccc(N2CCOCC2)cc1.c1ccc(-c2ccccn2)nc1 [(3)]; label 1

Dear reviewer, please state whether [H]/N=C(/N)N[C@H]1[C@H](O)[C@@H](O)[C@H](O[C@@H]2O[C@@H](C)[C@](O)(C=O)[C@H]2O[C@@H]2O[C@@H](CO)[C@H](O)[C@@H](O)[C@@H]2NC)[C@@H](N/C(N)=N\[H])[C@@H]1O [Streptomycin, streptomycin, reference compound] has Inhibition% strictly beneath 70%. label 0

Dear reviewer, please state whether [Co+2].[O-]c1ccccc1N=Cc1ccc(N2CCOCC2)cc1.[O-]c1ccccc1N=Cc1ccc(N2CCOCC2)cc1.c1ccc(-c2ccccn2)nc1 [(2)] has Inhibition% strictly beneath 70%. label 1

Dear reviewer, please state whether [Mn+2].[O-]c1ccccc1N=Cc1ccc(N2CCOCC2)cc1.[O-]c1ccccc1N=Cc1ccc(N2CCOCC2)cc1.c1ccc(-c2ccccn2)nc1 [(1)] has Inhibition% strictly beneath 70%. label 1

Dear reviewer, please state whether Oc1ccccc1N=Cc1ccc(N2CCOCC2)cc1 [(HL), 2-(4-morpholinobenzylideneamino)phenol] has Inhibition% strictly beneath 70%. label 1

Dear reviewer, please state whether NCC[C@H](O)C(=O)N[C@@H]1C[C@H](N)[C@@H](O[C@H]2O[C@H](CN)[C@@H](O)[C@H](O)[C@H]2O)[C@H](O)[C@H]1O[C@H]1O[C@H](CO)[C@@H](O)[C@H](N)[C@H]1O [Amikacin, amikacin, reference compound] has Inhibition% strictly beneath 70%. label 0
